# Protocol: Half life in BALB/c mouse at 2 mg/kg, iv
# Type: ADME, organism-based
# Measurement conditions: in vivo
Assay readout: half-life (h)

>>> readout_number("CC(=O)N1CCC(NC(=O)c2ccc3cc2OCCCCCCOc2cc(ccc2F)-c2nc(ncc2F)N3)CC1")
4.2

----------
# Protocol: Clearance in BALB/c mouse at 15 mg/kg, po
# Type: ADME, organism-based
# Measurement conditions: in vivo
Assay readout: CL/F (mL/min/kg)

>>> readout_number("CC(=O)N1CCC(NC(=O)c2ccc3cc2OCCCCCCOc2cc(ccc2F)-c2nc(ncc2F)N3)CC1")
350

----------
# Protocol: Metabolic stability in human liver microsomes assessed as half life measured for 5 to 60 mins by LC-MS/MS analysis
# Assay type: ADME, Microsome
# Measurement conditions: time 5-60 min
Think of 2 h as a floor: if half-life stands on it or above, it is rule met; beneath it, rule not met.

>>> group("CN1CCN(CCNC(=O)c2ccc3cc2OCCCCCCOc2cc(ccc2F)-c2nc(ncc2F)N3)CC1")
"rule not met"
>>> group("O=C(NCCN1CCCC1)c1ccc2cc1OCCCCCCOc1cc(ccc1F)-c1nc(ncc1F)N2")
"rule not met"
>>> group("CN1CCC(NC(=O)c2ccc3cc2OCCCCCCOc2cc(ccc2F)-c2nc(ncc2F)N3)CC1")
"rule not met"
>>> group("CC(=O)N1CCC(NC(=O)c2ccc3cc2OCCCCCCOc2cc(ccc2F)-c2nc(ncc2F)N3)CC1")
"rule met"
>>> group("O=C(NC1CCN(C2CCOCC2)CC1)c1ccc2cc1OCCCCCCOc1cc(ccc1F)-c1nc(ncc1F)N2")
"rule met"
>>> group("O=C(NC1CCN(C2CC2)CC1)c1ccc2cc1OCCCCCCOc1cc(ccc1F)-c1nc(ncc1F)N2")
"rule not met"
>>> group("CN1CCC(CNC(=O)c2ccc3cc2OCCCCCCOc2cc(ccc2F)-c2nc(ncc2F)N3)CC1")
"rule not met"
>>> group("CCN1CCC(NC(=O)c2ccc3cc2OCCCCCCOc2cc(ccc2F)-c2nc(ncc2F)N3)CC1")
"rule met"
>>> group("O=C(NC1CCN(C2CCOC2)CC1)c1ccc2cc1OCCCCCCOc1cc(ccc1F)-c1nc(ncc1F)N2 (configuration not stated)")
"rule not met"
>>> group("CC(C)N1CCC(NC(=O)c2ccc3cc2OCCCCCCOc2cc(ccc2F)-c2nc(ncc2F)N3)CC1")
"rule met"
>>> group("COC[C@@H](C)NC(=O)c1ccc2cc1OCCCCCCOc1cc(ccc1F)-c1nc(ncc1F)N2")
"rule not met"
>>> group("O=C(NCCN1CCOCC1)c1ccc2cc1OCCCCCCOc1cc(ccc1F)-c1nc(ncc1F)N2")
"rule not met"

----------
# Protocol: Half life in BALB/c mouse at 15 mg/kg, po
# Assay type: ADME, organism-based
# Measurement conditions: in vivo
Assay readout: half-life (h)

>>> readout_number("CC(=O)N1CCC(NC(=O)c2ccc3cc2OCCCCCCOc2cc(ccc2F)-c2nc(ncc2F)N3)CC1")
3.5

----------
# Tested on: Lung adenocarcinoma organoid
# Protocol: Anti-tumor activity against multidrug-resistant patient (#2663)-derived human Lung adenocarcinoma organoid assessed as inhibition of cell viability measured after 96 hrs
# Type: functional, tissue-based
# Measurement conditions: Neoplasm
Assay readout: IC50

>>> result("CC(=O)N1CCC(NC(=O)c2ccc3cc2OCCCCCCOc2cc(ccc2F)-c2nc(ncc2F)N3)CC1")
"< 50 nM"
